- measured-on: T1, recombinant human C1r2s2 tetramer (human, UniProt P09871 16-688; P00736 18-705)
- T1 construct: C1s and C1r co-expressed in HEK293 and purified from the supernatant as tetramer; also called hC1r2s2
- T1 chain 1: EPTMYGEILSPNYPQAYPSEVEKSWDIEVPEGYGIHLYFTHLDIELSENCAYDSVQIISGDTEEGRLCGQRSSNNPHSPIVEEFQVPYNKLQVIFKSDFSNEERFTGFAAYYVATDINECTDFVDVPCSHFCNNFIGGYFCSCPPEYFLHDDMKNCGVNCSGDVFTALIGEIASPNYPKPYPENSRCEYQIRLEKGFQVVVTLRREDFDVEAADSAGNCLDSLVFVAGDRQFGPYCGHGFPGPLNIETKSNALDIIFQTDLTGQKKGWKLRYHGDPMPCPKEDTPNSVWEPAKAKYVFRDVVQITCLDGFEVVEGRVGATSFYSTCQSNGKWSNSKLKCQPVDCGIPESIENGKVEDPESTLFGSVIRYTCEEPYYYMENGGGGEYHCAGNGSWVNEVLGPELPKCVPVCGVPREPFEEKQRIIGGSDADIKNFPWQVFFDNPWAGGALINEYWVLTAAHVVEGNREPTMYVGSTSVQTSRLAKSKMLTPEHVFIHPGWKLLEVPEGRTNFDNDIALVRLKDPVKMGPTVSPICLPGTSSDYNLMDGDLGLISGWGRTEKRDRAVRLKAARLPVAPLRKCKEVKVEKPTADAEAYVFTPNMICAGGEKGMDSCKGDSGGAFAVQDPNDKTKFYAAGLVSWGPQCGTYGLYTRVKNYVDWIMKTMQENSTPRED
- T1 chain 2: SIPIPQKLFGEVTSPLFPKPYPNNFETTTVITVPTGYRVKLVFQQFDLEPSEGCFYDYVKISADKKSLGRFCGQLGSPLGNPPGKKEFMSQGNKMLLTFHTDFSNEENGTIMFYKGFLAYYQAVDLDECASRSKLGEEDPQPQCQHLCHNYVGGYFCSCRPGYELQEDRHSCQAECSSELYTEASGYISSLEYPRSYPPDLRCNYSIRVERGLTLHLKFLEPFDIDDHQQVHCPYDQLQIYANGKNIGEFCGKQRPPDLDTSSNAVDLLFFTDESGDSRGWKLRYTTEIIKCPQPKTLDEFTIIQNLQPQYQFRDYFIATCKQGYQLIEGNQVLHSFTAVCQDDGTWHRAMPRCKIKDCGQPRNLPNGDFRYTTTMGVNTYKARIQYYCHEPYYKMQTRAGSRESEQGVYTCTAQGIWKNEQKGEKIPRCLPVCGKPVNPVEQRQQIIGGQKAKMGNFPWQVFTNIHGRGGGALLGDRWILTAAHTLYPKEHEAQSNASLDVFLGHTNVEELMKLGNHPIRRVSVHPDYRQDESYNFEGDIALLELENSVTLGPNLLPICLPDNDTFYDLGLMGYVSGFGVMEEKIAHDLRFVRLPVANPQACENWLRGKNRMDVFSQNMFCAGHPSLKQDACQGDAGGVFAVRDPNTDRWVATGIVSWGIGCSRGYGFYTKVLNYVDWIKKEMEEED
- method-description: SPR (Biacore T200), 37 C; ratio of KD at pH 6.0 to KD at pH 7.4
endpoint: KD (pH 6.0)/KD (pH 7.4)
Answers are plain numbers.

Check out these entries, answers already filled in.
INSERT INTO assay_data (binder, readout_number) VALUES
  ('COS0637pHv17-G1A3FcgSil+LowpI (antibody, V domains shown, VH 24, VL 55, CH 45, CL 23) VH: QVQLVESGGGVVQPGRSLRLSCAASGFTFSAYAMNWIRQPPGKGLEWIGLIYGSGHEFYASWAEERVTISVDTSKNQFSLKLSSVTAADTAVYYCARGRSKNYNSDFHLWGQGTLVTVSS VL: DIQMTQSPSSLSASVGDRVTITCQAHEILHDKKNLAWYQQKPGQPPKLLIYGASQRESGVPSRFSGSGSGTDFTLTISSLQPEDFATYYCHGEFPHSSADLNHFGQGTKVEIKR', 143),
  ('COS0637pHv16-G1A3FcgSil+LowpI (antibody, V domains shown, VH 36, VL 55, CH 45, CL 23) VH: QVQLVESGGGVVQPGRSLRLSCAASGFTFSAYTMNWIRQPPGKGLEWIGLIYGSGHEFYASWAEERVTISVDTSKNQFSLKLSSVTAADTAVYYCARGRSKNYNSDFHLWGQGTLVTVSS VL: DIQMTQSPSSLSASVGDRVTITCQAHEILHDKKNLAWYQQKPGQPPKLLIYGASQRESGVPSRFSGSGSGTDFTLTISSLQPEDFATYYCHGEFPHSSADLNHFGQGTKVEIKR', 161);

API: the following record is the query input.
Query block: Data request, read-out KD (pH 6.0)/KD (pH 7.4), for COS0637pHv25-G1A3FcgSil+LowpI (antibody, V domains shown, VH 32, VL 55, CH 45, CL 23) VH: QVQLVESGGGVVQPGRSLRLSCAASGFTFSAYAMNWIRQPPGKGLEWIGLMYGSGHEFYASWAEERVTISVDTSKNQFSLKLSSVTAADTAVYYCARGRSKNYNSDFHLWGQGTLVTVSS VL: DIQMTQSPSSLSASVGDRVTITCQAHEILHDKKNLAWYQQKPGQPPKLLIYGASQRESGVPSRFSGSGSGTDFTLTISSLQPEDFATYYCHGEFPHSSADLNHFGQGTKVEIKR
Result block: 108
